Test system: PRKCD
stated.conditions: concentration: 1 μM, replicates: in singlicate; n = 1;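 further: KINOMEscan kinase panel screen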
Readings of %Inh for the listed compounds
# unit: % | format: bare number

Field: example entries. Status: answers known.
COc1ccc(-c2coc3ccc(-c4nnc(SCc5cccc(C#N)c5)o4)cc23)cc1 | 12
Cl.NS(=O)(=O)c1cccc(Nc2cc(-c3ccc(F)cc3)n[nH]2)c1 [GW824645] | 5
C[C@@H]1CC[C@H](C(=O)NC2CCCCC2)CN1c1cc(-c2ccc3c(N)n[nH]c3c2)nc(N)n1 [GSK2291363] | 8
COc1cc2ncn(-c3cc(OCCCc4ccccc4)c(C(N)=O)s3)c2cc1OC [GSK205189] | 0
O=C(NCc1cccs1)c1cc(C(=O)c2c(Cl)cccc2Cl)c[nH]1 [GW823670] | 0

Q: # get_value(readout='%Inh', item= COc1cccc(-n2cnc3c(N)ncnc32)c1 [SKF-97416] )
Result: 6

Q: # get_value(readout='%Inh', item= O=C(Nc1n[nH]c2nc(-c3ccccc3)c(Cl)cc12)C1CC1 [SB-734909] )
Result: 2

Q: # get_value(readout='%Inh', item= Nc1ncnc2c1ncn2-c1cccc(F)c1 [SKF-97560] )
Result: 1

====

System: PRKD3
stated.conditions: concentration: 1 μM, replicates: in singlicate; n = 1
Readings of %Inh for the listed molecules
# unit: % | format: bare number

CCC(=O)c1c(-c2ccccc2)c2cc(Cl)ccc2c(=O)n1Cc1cc(S(C)(=O)=O)n(CC(N)=O)n1 | 0

Turning now to a further record.
Q: # get_value(readout='%Inh', item= `CN1C(=O)C(Nc2ccccc2)=C(c2ccccc2)C1=O` )
Result: 0

====

Readings of %Inh for the listed compounds
Tested on: DAPK3
stated.conditions: concentration: 1 μM, replicates: in singlicate; n = 1
# unit: % | format: bare number

CC(C)(C)c1ccc(C(=O)Nc2cn3cc(-c4ccccc4)ccc3n2)cc1 | 0

Q: # get_value(readout='%Inh', item= `O=C(NCc1cccs1)c1cc(C(=O)c2c(Cl)cccc2Cl)c[nH]1` )
Result: 22

Q: # get_value(readout='%Inh', item= `COC(=O)c1c(-c2ccccc2)c2cc(Br)ccc2c(=O)n1Cc1ccc(S(C)(=O)=O)cc1` )
Result: 7

Q: # get_value(readout='%Inh', item= `CN1C(=O)C(Nc2ccccc2)=C(c2ccccc2)C1=O` )
Result: 0

Q: # get_value(readout='%Inh', item= `OCCCNc1nccc(-c2c(-c3cccc(C(F)(F)F)c3)nn3cc(C(F)(F)F)ccc23)n1` )
Result: 3

Q: # get_value(readout='%Inh', item= `CCCC(=O)Nc1n[nH]c2ncc(-c3cccc4ccccc34)cc12` )
Result: 24

Q: # get_value(readout='%Inh', item= `COc1cc(OC)cc(-c2cc3cnc(N)nc3nc2NC(=O)NC(C)(C)C)c1` )
Result: 0

Q: # get_value(readout='%Inh', item= `COc1ccc(-c2coc3ccc(-c4nnc(SCc5cccc(C#N)c5)o4)cc23)cc1` )
Result: 0

Q: # get_value(readout='%Inh', item= `Cc1ccccc1COc1cc(-n2cnc3cc(Cl)ccc32)sc1C(N)=O` )
Result: 0

====

Tested on: PRKCI
stated.conditions: concentration: 1 μM, replicates: in singlicate; n = 1
measurement.label: %Inh (%)
# unit: % | format: bare number

COc1cc(Nc2nccc(N3CCC(NC(=O)C(C)c4ccc(Cl)cc4)C3)n2)cc(OC)c1OC (centres unmarked) | 0
COc1cccc(C2=C(Nc3cccc(C(=O)O)c3)C(=O)NC2=O)c1 | 100
Cc1cc(Nc2nc(-c3cccc(C)n3)nc3ccccc23)ccn1 | 0
CCn1c(-c2nonc2N)nc2ccccc21 | 31
COc1cc2ncn(-c3cc(OCc4ccncc4Br)c(C(N)=O)s3)c2cc1OC | 13

Q: # get_value(readout='%Inh', item= `O=C(Nc1ccc2c(c1)OCO2)NC1CCN(c2ccnc(NCc3ccc(F)cc3)n2)CC1` )
Result: 0

Q: # get_value(readout='%Inh', item= COc1cc(Nc2nccc(N3CCC(NC(=O)C4COc5ccccc5O4)C3)n2)cc(OC)c1OC (centres unmarked) )
Result: 0

These entries and their values trace back to paper PMC5540273.
